Catalogue of logP readings, one per entry.
# PROTOCOL_SUMMARY: log P determination by HPLC on reverse-phase column (EEC Directive 79/831 Annex V.A8)
# Assay type: physicochemical
MEASURE: logP

- O=C(NC1CC1)c1cc(Cl)cc(Cl)c1NC(=O)c1cc(Cn2nc(C(F)(F)F)nc2C(F)(F)F)nn1-c1ncccc1Cl [I-1-295]: 2.95
- CC(C)NC(=O)c1cc(Cl)cc(Cl)c1NC(=O)c1cc(Cc2ccoc2)nn1-c1ncccc1Cl [I-1-301]: 2.60
- CCCNC(=O)c1cc(I)cc(C)c1NC(=O)c1cc(Cn2nc(C(F)(F)F)cc2C(F)(F)F)nn1-c1ncccc1Cl [I-1-229]: 4.33
- Cc1cc(F)cc(C(=O)NCc2ccco2)c1NC(=O)c1cc(Cn2cc(Cl)c(C(F)(F)C(F)(F)F)n2)nn1-c1ncccc1Cl [I-1-196]: 3.90
- CNC(=O)c1cc(C#N)cc(C)c1NC(=O)c1cc(Cn2nc(C(F)(F)F)nc2C(F)(F)F)nn1-c1ncccc1Cl [I-1-176]: 3.11
- Cc1cc(Cl)cc(C(=O)NC2CC2)c1NC(=O)c1cc(Cn2nc(C)c(Br)c2C)nn1-c1ncccc1Cl [I-1-271]: 3.17
- Cc1cc(I)cc(C(=O)NCC#N)c1NC(=O)c1cc(Cn2nc(C(F)(F)F)cc2C(F)(F)F)nn1-c1ncccc1Cl [I-1-241]: 3.73
- CCNC(=O)c1cc(I)cc(C)c1NC(=O)c1cc(Cn2cc(Cl)c(C(F)(F)C(F)(F)F)n2)nn1-c1ncccc1Cl [I-1-277]: 4.17
- CC(C)NC(=O)c1cc(Cl)cc(Cl)c1NC(=O)c1cc(Cn2nc(C(F)(F)F)nc2C(F)(F)F)nn1-c1ncccc1Cl [I-1-291]: 3.76
- CNC(=O)c1cc(I)cc(C)c1NC(=O)c1cc(Cn2cc(C(F)(F)C(F)(F)F)c(C(F)(F)C(F)(F)F)n2)nn1-c1ncccc1Cl [I-1-239]: 4.51
- C[C@@H](CS(C)(=O)=O)NC(=O)c1cc(Cl)cc(Cl)c1NC(=O)c1cc(Cn2cc(C(F)(F)C(F)(F)F)c(C(F)(F)C(F)(F)F)n2)nn1-c1ncccc1Cl [I-1-328]: 3.63
- CNC(=O)c1cc(Cl)cc(C)c1NC(=O)c1cc(C(=NOC)n2nc(C(F)(F)F)cc2C(F)(F)F)nn1-c1ncccc1Cl [I-1-355]: 4.07
- Cc1cc(I)cc(C(=O)NC2CC2)c1NC(=O)c1cc(Cn2cc(C(F)(F)C(F)(F)F)c(C(F)(F)C(F)(F)F)n2)nn1-c1ncccc1Cl [I-1-275]: 4.71
